Examples of compounds with documented IC50 follow.
- Test Target: Recombinant STAT3 protein (STAT3(G127-I722)) (Homo sapiens, UniProt P40763)
- Construct: Recombinant STAT3 protein (STAT3(G127-I722))
- Sequence (P40763 127-722): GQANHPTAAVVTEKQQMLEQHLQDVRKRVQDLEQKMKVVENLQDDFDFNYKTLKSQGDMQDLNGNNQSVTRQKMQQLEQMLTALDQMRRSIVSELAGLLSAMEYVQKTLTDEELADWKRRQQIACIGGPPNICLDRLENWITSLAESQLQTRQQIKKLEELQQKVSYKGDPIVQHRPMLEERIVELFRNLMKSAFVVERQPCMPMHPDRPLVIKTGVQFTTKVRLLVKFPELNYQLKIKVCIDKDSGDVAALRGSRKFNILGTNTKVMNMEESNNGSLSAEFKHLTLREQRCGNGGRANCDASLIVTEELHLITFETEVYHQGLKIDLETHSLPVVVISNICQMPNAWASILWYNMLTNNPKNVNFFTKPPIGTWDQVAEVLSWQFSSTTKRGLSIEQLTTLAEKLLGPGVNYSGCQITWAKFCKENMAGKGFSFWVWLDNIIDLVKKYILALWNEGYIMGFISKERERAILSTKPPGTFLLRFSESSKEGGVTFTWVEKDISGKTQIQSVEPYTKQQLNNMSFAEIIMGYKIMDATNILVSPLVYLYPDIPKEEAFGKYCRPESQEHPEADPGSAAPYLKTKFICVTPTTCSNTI
- Method Summary: STAT3 Fluorescence Polarization (FP) Assay
- Condition Description: STAT3(G127-I722) 25 nM, probe 5-FAM-GpYLPQTV-NH2 2 nM, 45-minute incubation

Cc1ccc2onc(C(=O)N3CC[C@H]4CC[C@@H](C(=O)N5CCOC[C@H]5c5ccccc5)N4C(=O)[C@@H](NC(=O)c4ccc5ccc(C(F)P(=O)(O)O)cc5c4)C3)c2c1 (stereo partly shown)    > 10 µM
CN1CCN(c2ccccc2CN2CC[C@H]3CC[C@@H](C(=O)N4CC(c5cccnc5)C4)N3C(=O)[C@@H](NC(=O)c3cc4cc(C(F)(F)P(=O)(O)O)ccc4s3)C2)CC1    ≤ 0.1 µM
Cc1ccc2onc(C(=O)N3CC[C@H]4CC[C@@H](C(=O)N5C[C@H](c6ccn(C)c(=O)c6)CC56CC6)N4C(=O)[C@@H](NC(=O)c4ccc5ccc([C@@H](F)P(=O)(O)O)cc5c4)C3)c2c1    > 10 µM
Cc1ccc2onc(C(=O)N3CC[C@H]4CC[C@@H](C(=O)N5CCOCC5)N4C(=O)[C@@H](NC(=O)c4ccc5c(F)cc(CP(=O)(O)O)cc5c4)C3)c2c1    > 10 µM
CN1CCN(c2ccc(C(=O)N3CC[C@H]4CC[C@@H](C(=O)N5CC(c6cccnc6)C5)N4C(=O)[C@@H](NC(=O)c4cc5cc(C(F)(F)P(=O)(O)O)ccc5s4)C3)c(Cl)c2)CC1    ≤ 0.1 µM
CC(=O)N1CC[C@H]2CC[C@@H](C(=O)N(C)c3ccccc3)N2C(=O)[C@@H](NC(=O)c2ccc3ccc(P(=O)(O)O)cc3c2)C1    > 10 µM

Kindly review the next compound as well.
Query block: Note IC50 for the compound shown: CC(=O)N1CC[C@H]2CC[C@@H](C(=O)N3CC(c4ccn(C)c(=O)c4)CC34CC4)N2C(=O)[C@@H](NC(=O)c2ccc3ccc(CP(=O)(O)O)cc3c2)C1 (stereo partly shown)
Result block: > 10 µM

---

Recorded pIC50 by entry
- Test Target: Recombinant STAT3 protein (STAT3(G127-I722)) (Homo sapiens, UniProt P40763)
- Construct: Recombinant STAT3 protein (STAT3(G127-I722))
- Method Summary: STAT3 Fluorescence Polarization (FP) Assay
- Condition Description: STAT3(G127-I722) 25 nM, probe 5-FAM-GpYLPQTV-NH2 2 nM, 45-minute incubation
pIC50: −log10 of the molar value.

For orientation, consider the following solved cases.
CC(=O)N1CC[C@H]2CC[C@@H](C(=O)N(C)c3ccc(C#N)cc3)N2C(=O)[C@@H](NC(=O)c2cc3cc(C(F)(F)P(=O)(O)O)ccc3[nH]2)C1    5.00 to 6.00
CC(=O)N1CC[C@H]2CC[C@@H](C(=O)N(C)c3ccc(OCCN(C)C)cc3)N2C(=O)[C@@H](NC(=O)c2cc3cc(C(F)(F)P(=O)(O)O)ccc3s2)C1    5.00 to 6.00
N#C[C@H]1CN(C(=O)[C@@H]2CC[C@@H]3CCN(CC(F)F)C[C@H](NC(=O)c4ccc5ccc(C(F)(F)P(=O)(O)O)cc5c4)C(=O)N32)CC[C@@H]1c1ccccc1 (relative stereo)    5.00 to 6.00
COc1ccc2onc(C(=O)N3CC[C@H]4CC[C@@H](C(=O)N5CCOCC5)N4C(=O)[C@@H](NC(=O)c4ccc5ccc(C(F)P(=O)(O)O)cc5c4)C3)c2c1 (some centres unmarked)    < 5.00

Query block: Let me know recorded pIC50 for CC(=O)N1CC[C@H]2CC[C@@H](C(=O)N(C)c3ccccc3C#N)N2C(=O)[C@@H](NC(=O)c2cc3cc(C(F)(F)P(=O)(O)O)ccc3[nH]2)C1 , thanks.
Result block: 5.00 to 6.00

Query block: State its pIC50 for this molecule: CC(=O)N1CC[C@H]2CC[C@@H](C(=O)Nc3ccc(OCCN(C)C)cc3)N2C(=O)[C@@H](NC(=O)c2cc3cc(C(F)(F)P(=O)(O)O)ccc3s2)C1
Result block: 5.00 to 6.00

---

- Test Target: Recombinant STAT3 protein (STAT3(G127-I722)) (Homo sapiens)
- Construct: Recombinant STAT3 protein (STAT3(G127-I722))
- Method Summary: STAT3 Fluorescence Polarization (FP) Assay
- Condition Description: STAT3(G127-I722) 25 nM, probe 5-FAM-GpYLPQTV-NH2 2 nM, 45-minute incubation
pIC50: −log10 of the molar value.
Entries and their pIC50

The cases that follow already have their pIC50 on record.
COC(=O)[C@@H]1CN(C(=O)[C@@H]2CC[C@@H]3CCN(CC(F)F)C[C@H](NC(=O)c4cc5cc(C(F)(F)P(=O)(O)O)ccc5s4)C(=O)N32)C[C@H]1c1ccccc1 (single isomer, unassigned)    6.00 to 7.00
CCN1CC[C@H](NC(=O)c2cc3cc(C(F)(F)P(=O)(O)O)ccc3s2)C(=O)N2[C@H](CC[C@H]2C(=O)N2CC(c3cccnc3)C2)C1    ≥ 7.00
CN(C(=O)[C@@H]1CC[C@@H]2CCN(C(=O)Cc3ccccc3)C[C@H](NC(=O)c3cc4cc(C(F)(F)P(=O)(O)O)ccc4[nH]3)C(=O)N21)c1ccccc1    5.00 to 6.00
CC(=O)N1CC[C@H]2CC[C@@H](C(=O)N(C)c3ccc(Cl)c(Cl)c3)N2C(=O)[C@@H](NC(=O)c2cc3cc(C(F)(F)P(=O)(O)O)ccc3s2)C1    5.00 to 6.00

Query block: Identify measured pIC50 associated with CC(=O)N1CC[C@H]2CC[C@@H](C(=O)N3CCC[C@@H]3Cc3ccccc3)N2C(=O)[C@@H](NC(=O)c2cc3cc(C(F)(F)P(=O)(O)O)ccc3[nH]2)C1
Result block: 5.00 to 6.00

---

- Test Target: Recombinant STAT3 protein (STAT3(G127-I722)) (Homo sapiens, UniProt P40763)
- Construct: Recombinant STAT3 protein (STAT3(G127-I722))
- Method Summary: STAT3 Fluorescence Polarization (FP) Assay
- Type: binding
- Condition Description: STAT3(G127-I722) 25 nM, probe 5-FAM-GpYLPQTV-NH2 2 nM, 45-minute incubation
- Description: STAT3 Fluorescence Polarization (FP) Assay An FP assay was developed to determine IC50 values for test substances. […] Reaction components were mixed, and FP was measured after 45-minute incubation at room temperature using a Tecan Spark multimode plate reader. FP signal (mP) was plotted against the log concentration of the test substances and IC50 values were calculated by nonlinear regression analysis using GraphPad Prism software. […]
Measurement Kind: IC50

Query block: # return recorded IC50 for entry Cc1cc(Cl)cc(C(=O)N2CC[C@H](NC(=O)c3ccc4ccc(C(F)P(=O)(O)O)cc4c3)C(=O)N3[C@H](CC[C@H]3C(=O)N3CCOCC3)C2)c1 (some centres unmarked)
Result block: > 10 µM

---

# IC50 listing for each entry below
- Test Target: Recombinant STAT6 protein (STAT6(W123-T658)) (Homo sapiens)
- Construct: Recombinant STAT6 protein (STAT6(W123-T658))
- Sequence (P42226 123-658): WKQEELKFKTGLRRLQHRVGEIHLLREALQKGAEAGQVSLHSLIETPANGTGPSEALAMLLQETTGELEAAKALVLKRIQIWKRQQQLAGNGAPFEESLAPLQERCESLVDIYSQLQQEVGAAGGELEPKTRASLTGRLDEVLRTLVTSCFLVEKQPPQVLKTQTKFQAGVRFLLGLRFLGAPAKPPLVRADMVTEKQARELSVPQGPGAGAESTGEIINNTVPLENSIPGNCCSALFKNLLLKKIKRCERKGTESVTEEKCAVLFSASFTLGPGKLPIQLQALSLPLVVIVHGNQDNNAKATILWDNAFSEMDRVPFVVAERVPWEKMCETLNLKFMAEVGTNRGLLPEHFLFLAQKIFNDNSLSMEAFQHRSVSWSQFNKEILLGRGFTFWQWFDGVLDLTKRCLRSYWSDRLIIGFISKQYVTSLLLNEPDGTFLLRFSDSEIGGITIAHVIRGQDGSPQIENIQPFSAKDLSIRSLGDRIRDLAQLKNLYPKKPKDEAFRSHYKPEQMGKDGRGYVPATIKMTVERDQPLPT
- Method Summary: STAT6 Fluorescence Polarization (FP) Assay
- Condition Description: STAT6(W123-T658) 250 nM, probe 5-FAM-ApYKPFQDLI-NH2 2 nM, 45-minute incubation

CC(=O)N1CC[C@H]2CC[C@@H](C(=O)N(C)c3ccc4nnccc4c3)N2C(=O)[C@@H](NC(=O)c2ccc3ccc(C(F)(F)P(=O)(O)O)nc3c2)C1 [Compound 120]    3 to 30 µM

Query block: Complete the entry with IC50 for CC(=O)N1CC[C@H]2CC[C@@H](C(=O)N3CCC[C@@H]3Cc3ccccc3)N2C(=O)[C@@H](NC(=O)c2cc3cc(C(F)(F)P(=O)(O)O)ccc3[nH]2)C1 [Compound 129]
Result block: 0.3 to 3 µM

Query block: Identify the reported IC50 for the following entry. CC(=O)N1CC[C@H]2CC[C@@H](C(=O)N(C)c3ccc(C(C)(C)c4ccccc4)cc3)N2C(=O)[C@@H](NC(=O)c2cc3cc(C(F)(F)P(=O)(O)O)ccc3s2)C1 [Compound 155]
Result block: 0.3 to 3 µM

Query block: Identify the reported IC50 for the following entry. COc1ccc(N(C)C(=O)[C@@H]2CC[C@@H]3CCN(C(C)=O)C[C@H](NC(=O)c4cc5cc(C(F)(F)P(=O)(O)O)ccc5[nH]4)C(=O)N32)cc1 [Compound 166]
Result block: 0.3 to 3 µM

Query block: Write down IC50 measured for item CC(=O)N1CC[C@H]2CC[C@@H](C(=O)N(C)c3ccccc3)N2C(=O)[C@@H](NC(=O)c2cc3cc(C(C#N)P(=O)(O)O)ccc3s2)C1 (stereo partly drawn) [Compound 16]
Result block: > 30 µM

Query block: Please look at this compound and report its IC50: CC(=O)N1CC[C@H]2CC[C@@H](C(=O)N(C)c3ccc(C4(C)COC4)cc3)N2C(=O)[C@@H](NC(=O)c2cc3cc(C(F)(F)P(=O)(O)O)ccc3s2)C1 [Compound 47]
Result block: 0.3 to 3 µM
